- Test system: A431 cells EGFR WT
- test-name: A431 cell viability assay (Cell Titer-Glo, 6 days)
- Assay type: cell-based, human
- test-settings: Homo sapiens, A-431, 144 h; A431 cells, 6 days
pIC50: −log10 of the molar value.
The following compounds are shown together with reported pIC50 values.
observation-type: pIC50

* C=CC(=O)Nc1cc(Nc2nccc(-c3c4n(c5ccccc35)CCOC4)n2)c(OC)cc1N(C)C(C)CN(C)C (stereo not shown) | 6.79
* C=CC(=O)Nc1cc(Nc2nccc(-c3c4n(c5ccccc35)CCC4)n2)c(OC)cc1N(C)C(C)CN(C)C (stereo not shown) | 6.57
* C=CC(=O)Nc1cc(Nc2ncc(F)c(-c3c4n(c5ccccc35)CCOC4)n2)c(OC)cc1N(C)CC(C)(C)N(C)C | 6.22
* C=CC(=O)Nc1cc(Nc2nccc(-c3c4n(c5ccccc35)CCC4=O)n2)c(OC)cc1N(C)CCN(C)C | 6.43
